Data origin: patent US10695337B2

assayedTarget: human JAK1 (a.a. 837-1142)
assayExplanation: In vitro JAK kinase assay (HTRF, phosphorylation of a biotinylated peptide), JAK1
Type: biochemical
recordedConditions: measured at 1 mM ATP; JAK2 IC50 / JAK1 IC50
readoutKind: IC50 Ratio JAK2/JAK1

| lineNotation | IC50 Ratio JAK2/JAK1 |
| --- | --- |
| Cc1noc(C)c1S(=O)(=O)N1CCC(N2CC(CC#N)(n3cc(-c4ncnc5[nH]ccc45)cn3)C2)CC1 | 7.1 |

[1] N#CCC1(n2cc(-c3c(C#N)cnc4[nH]ccc34)cn2)CN(C2CCN(C(=O)c3cc(C#N)ccc3C#N)CC2)C1
[2] COc1nc(CN2CCC(N3CC(CC#N)(n4cc(-c5ncnc6[nH]ccc56)cn4)C3)CC2)ccc1C#N
[3] N#CCC1(n2cc(-c3ncnc4[nH]ccc34)cn2)CN(C2CCN(C(=O)OCC3CCC3)CC2)C1
Task: Arrange these 3 compounds in increasing order of IC50 Ratio JAK2/JAK1. Rank them, then answer with their labels in that order.
Output: 2, 1, 3
(2: 2.4, 1: 6.0, 3: 9.7)

[A] N#CCC1(n2cc(-c3ncnc4[nH]ccc34)cn2)CN(C2CCN(C(=O)c3cc(F)ccc3F)CC2)C1
[B] N#CCC1(n2cc(-c3ncnc4[nH]ccc34)cn2)CN(C2CCN(C(=O)c3cccc(C#N)c3)CC2)C1
Task: Choose between A and B : whose measured IC50 Ratio JAK2/JAK1 value is numerically larger? Give the label under which the chosen entry appears.
Output: B

[a] Cc1ccc(NC(=O)N2CCC(N3CC(CC#N)(n4cc(-c5ncnc6[nH]ccc56)cn4)C3)CC2)c(C)n1
[b] N#CCC1(n2cc(-c3ncnc4[nH]ccc34)cn2)CN(C2CCN(C(=O)c3ccc(F)c(O)c3)CC2)C1
[c] Cc1ccccc1NC(=O)N1CCC(N2CC(CC#N)(n3cc(-c4ncnc5[nH]ccc45)cn3)C2)CC1
Task: Order field: IC50 Ratio JAK2/JAK1 | Direction: descending (largest first) Write the labels out in the order the request specifies.
Output: c, b, a
(c: 9.5, b: 5.0, a: 3.5)
